B1: tRNA (parent)
chain: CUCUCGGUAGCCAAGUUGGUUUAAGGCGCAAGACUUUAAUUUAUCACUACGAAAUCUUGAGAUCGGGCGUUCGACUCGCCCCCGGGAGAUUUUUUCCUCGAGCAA

Variants of: B1
Method notes: nonsense suppression (GFP-seq) (ratio to wild type); higher = more function; SUP4oc tRNA, yeast GFP reporter sort-seq
Fewer inactive variants are shown than the library holds.
Would you please tag the item criterion met when its nonsense suppression is 0.2 or above, and criterion not met when it is below?

As a guide, the following entries are already answered.
| Mutation descriptor | Category |
| --- | --- |
| A30G G78A | criterion not met |
| C75G | criterion met |
| A24U A60G | criterion not met |
| A24C A30U A54C U58G C75A | criterion met |
| A30G G73A C75A | criterion met |
| U2G C27U A30G C79U C83A | criterion not met |
| A14G C29U | criterion not met |
| C12G U16C A23G | criterion met |

Q: Could you tell me if the measured nonsense suppression of U35C C83G reaches 0.2 or more?
Ans: criterion not met

Q: Could you tell me if the measured nonsense suppression of G10A A13C reaches 0.2 or more?
Ans: criterion not met

Q: Could you tell me if the measured nonsense suppression of U8C A54C reaches 0.2 or more?
Ans: criterion not met
